Measured values drawn from patent US20110237629A1 for this set.

- measurement_notes: Stability in buffer at various pH values
- Type: physicochemical
- condition_summary: pH 4, 37° C., 24 h
- Experimental: 0.3 mg of the test substance is weighed into a 2 ml HPLC vial and 0.5 ml of acetonitrile or acetonitrile/DMSO (9:1) is added. The substance is dissolved by putting the sample vessel in an ultrasonic bath for about 10 seconds. […] 5 μl portions of the test solution are analyzed by HPLC for their content of unchanged test substance, and of basic mother substance of the formula (A) formed, every hour over a period of 24 hours at 37° C. […]
Where a name gives a salt, the structure may show the parent alone.
measured_metric: % test substance after 24 h [F(t = 24 h) × 100/F(t = 0 h)] (%)
Just the number please, in %, no unit attached.

Answered cases to consult:
{"columns": ["compound", "unit_label", "experimental_value"],
 "data": [
  ["C[C@@H](O)[C@H](N)C(=O)OC[C@H](COc1ccc(-c2c(C#N)c(N)nc(SCc3coc(-c4ccc(Cl)cc4)n3)c2C#N)cc1)OC(=O)[C@@H](N)[C@@H](C)O [Example 18, (trifluoroacetic acid) salt]", "%", 95],
  ["N#Cc1c(N)nc(SCc2coc(-c3ccc(Cl)cc3)n2)c(C#N)c1-c1ccc(OC[C@@H](COC(=O)CN)OC(=O)CN)cc1 [Example 3, dihydrochloride]", "%", 99],
  ["N#Cc1c(N)nc(SCc2coc(-c3ccc(Cl)cc3)n2)c(C#N)c1-c1ccc(OC[C@@H](COC(=O)CCCN)OC(=O)CCCN)cc1", "%", 92],
  ["C[C@H](N)C(=O)OC[C@H](COc1ccc(-c2c(C#N)c(N)nc(SCc3coc(-c4ccc(Cl)cc4)n3)c2C#N)cc1)OC(=O)[C@H](C)N", "%", 98]
]}

What does the data say about its % test substance after 24 h [F(t = 24 h) × 100/F(t = 0 h)]? Entry: "C[C@H](N)C(=O)OC[C@@H](COc1ccc(-c2c(C#N)c(N)nc(SCc3coc(-c4ccc(Cl)cc4)n3)c2C#N)cc1)OC(=O)[C@H](C)N"
96
